biological target: T1, AAV9 (adeno-associated virus 9); assay: SPR, AAV amine-coupled to CM5 chip;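 note: nanobodies flowed as analyte at seven concentrations spanning 1–100 nM over immobilized AAV (500–800 RU), kinetic constants derived by fitting the binding curves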
T1 construct: also called adeno-associated virus serotype 9
Label 1.0 when koff is strictly below 0.0007 s⁻¹; otherwise label 0.0.

Task: Take the binder A4-066 (VHH) VHH: VQLQESGGGLVQTGGSLRLSCAASGRAFSLNTMGWYRQAPGKQRELVATVTRGGSTNYAGSVKGRFTISRDNAKNTVYLQMNSLRPEDTAVYYCHVDEVRESSWTTSNLWGQGTQVTVSS and say whether its koff is less than 0.0007 s⁻¹.
Output: 0.0

Task: Lab note: koff threshold 0.0007 s⁻¹. Does this binder come in strictly under it? A4-096 (VHH) VHH: VQLQESGGGLVQPGGSLRLSCIASGSSFSANTMGWYRQAPGKQRELVATITRGGNTNYGDSVKGRFTISRDNAKNTVYLQMNSLRPEDTAVYYCHIDEIRESTWTTSNLWGQGTQVTVSS
Output: 1.0

Task: Check if koff falls below 0.0007 s⁻¹ for A4-079 (VHH) VHH: VQLQESGGGLVQPGGSLRLSCAASGTRFSINTMGWYRQAPGKQRELVANVTPAGSTNYADSVKGRFTISRDNAKNTVYLQMNSLRPEDTAVYYCHVDELRDSSWTTSNLWGQGTQVTVSS .
Output: 1.0

Task: Check if koff falls below 0.0007 s⁻¹ for A4-054 (VHH) VHH: VQLQESGGGLVQPGGSLRLSCAASGSAFSINTMGWYRQAPGKQRELVAAVTRGGSTNYADSVKGRFTISRDNAKNTVYLQMNSLRPEDTAVYYCHVDEVRQSSWTTSNLWGQGTQVTVSS .
Output: 1.0

Task: Field: below-cutoff. Rule: recorded koff strictly less than 0.0007 s⁻¹. Subject: A4-068 (VHH) VHH: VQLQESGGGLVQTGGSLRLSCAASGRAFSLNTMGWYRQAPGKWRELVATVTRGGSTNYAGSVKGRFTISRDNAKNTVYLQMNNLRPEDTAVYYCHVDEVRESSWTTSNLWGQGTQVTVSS
Output: 0.0

Task: Answer whether the binder A4-064 (VHH) VHH: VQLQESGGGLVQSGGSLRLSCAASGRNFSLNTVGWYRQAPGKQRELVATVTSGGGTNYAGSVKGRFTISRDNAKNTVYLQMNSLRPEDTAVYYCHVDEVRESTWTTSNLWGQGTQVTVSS has koff strictly less than 0.0007 s⁻¹
Output: 0.0

Task: Determine whether this binder shows koff lower than 0.0007 s⁻¹ (ties excluded): A4-070 (VHH) VHH: VQLQESGGGLVQPGGSLRLSCAASGSIFSINSMGWYRQAPGKWRELVATVTRGGSTNYANSVKGRFTISRDNAKNTVYLQMNTLRPEDTAVYYCHLDEVRDSSWTTSNLWGQGTQVTVSS
Output: 1.0

Task: Lab note: confirm whether the reported koff for this binder is below 0.0007 s⁻¹, equality not counting. binder: A4-080 (VHH) VHH: VQLQESGGGLVQPGGSLRLSCAASGSRFSLNTMGWYRQAPGKQRELVATVTRGGSTNYADFVKGRFTISRDNAKNTVYLQMNSLRPEDTAVYYCHVDELRESGWTTSNLWGQGTQVTVSS
Output: 0.0

Task: A record lists A4-056 (VHH) VHH: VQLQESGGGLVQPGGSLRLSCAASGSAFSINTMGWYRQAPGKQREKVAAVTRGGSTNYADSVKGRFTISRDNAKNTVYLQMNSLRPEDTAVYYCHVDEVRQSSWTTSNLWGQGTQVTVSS . Is its koff below 0.0007 s⁻¹?
Output: 0.0
